Target: Substance-P receptor (Homo sapiens, UniProt P25103)
Sequence (P25103 whole entry): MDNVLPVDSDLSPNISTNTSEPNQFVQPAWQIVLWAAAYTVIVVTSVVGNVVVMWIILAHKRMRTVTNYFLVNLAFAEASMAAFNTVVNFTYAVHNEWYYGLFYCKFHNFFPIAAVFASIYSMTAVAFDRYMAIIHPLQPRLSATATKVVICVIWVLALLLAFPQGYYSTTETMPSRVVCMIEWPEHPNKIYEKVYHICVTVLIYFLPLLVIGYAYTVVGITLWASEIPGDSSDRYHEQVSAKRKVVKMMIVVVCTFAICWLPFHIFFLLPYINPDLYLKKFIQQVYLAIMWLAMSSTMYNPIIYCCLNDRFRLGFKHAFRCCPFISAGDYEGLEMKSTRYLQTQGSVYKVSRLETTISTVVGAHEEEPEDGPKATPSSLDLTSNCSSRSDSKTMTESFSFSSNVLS
Assay: Binding affinity in membrane preparations containing recombinant human Tachykinin receptor 1 in CHO cells by using [3H]-Sar SP as the radioligand.
Type: cell membranes
PROPERTY LABEL: pKi
Keep in mind that pKi stands for -log10 of concentration in molar terms.

Study these solved cases before continuing.
MOLECULE | RECORDED RESULT
Cc1cc(C)cc(C(=O)N2CCN(C(=O)CNC3CCN(Cc4cc[nH]c4)CC3)[C@H](c3ccc(Cl)c(Cl)c3)C2)c1 | 7.46
CC(=O)Nc1nc(CN2CCC(NCC(=O)N3CCN(C(=O)c4cc(C)cc(C)c4)C[C@H]3c3ccc(Cl)c(Cl)c3)CC2)cs1 | 7.28
CC(=O)Nc1ccc(CN2CCC(NCC(=O)N3CCN(C(=O)c4cc(C)cc(C)c4)C[C@H]3c3ccc(Cl)c(Cl)c3)CC2)cc1 | 7.82

I would be grateful if you could share the reported pKi for O=C(c1cc(Br)cc(Br)c1)N1CCN(C(=O)CNC2CCN(Cc3ccccc3)CC2)C(c2ccc(Cl)c(Cl)c2)C1 (configuration not stated) .
8.49

What about this molecule? O=C(CNC1CCN(Cc2ccccc2)CC1)N1CCN(Cc2cc(C(F)(F)F)cc(C(F)(F)F)c2)CC1c1ccc(Cl)c(Cl)c1 (configuration not stated)
7.52

###

Biological target: Substance-K receptor (Homo sapiens, UniProt P21452)
Sequence (P21452 whole entry): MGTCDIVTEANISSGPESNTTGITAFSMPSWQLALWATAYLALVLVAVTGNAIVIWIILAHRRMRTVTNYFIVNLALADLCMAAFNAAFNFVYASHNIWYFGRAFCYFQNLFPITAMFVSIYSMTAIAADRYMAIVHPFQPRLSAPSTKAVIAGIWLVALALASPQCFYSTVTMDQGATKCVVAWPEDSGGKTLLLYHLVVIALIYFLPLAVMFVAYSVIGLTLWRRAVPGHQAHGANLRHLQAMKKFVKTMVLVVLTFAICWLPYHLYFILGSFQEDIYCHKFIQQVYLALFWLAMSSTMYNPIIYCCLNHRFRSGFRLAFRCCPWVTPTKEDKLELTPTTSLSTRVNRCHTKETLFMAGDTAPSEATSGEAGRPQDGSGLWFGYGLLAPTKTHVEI
Assay: Binding affinity in membrane preparations containing recombinant human Tachykinin receptor 2 in CHO cells by using [3H]NKA as the radioligand.
Below: a set of entries, each annotated with reported Ki.
Please state the figure in nM; there is no need to write the unit.

COMPOUND | UNITS | Ki
Cc1cc(C)cc(C(=O)N2CCN(C(=O)CNC3CCN(Cc4cc[nH]c4)CC3)[C@H](c3ccc(Cl)c(Cl)c3)C2)c1 | nM | 1.3

What Ki value was documented for this compound, O=C(c1cc(Cl)cc(Cl)c1)N1CCN(C(=O)CNC2CCN(Cc3ccccc3)CC2)C(c2ccc(Cl)c(Cl)c2)C1 (configuration not stated) ?
14

Subsequent entry: O=C(CNC1CCN(Cc2ccccc2)CC1)N1CCN(Cc2cc(C(F)(F)F)cc(C(F)(F)F)c2)CC1c1ccccc1 (configuration not stated)
300

Next compound: `Cc1cc(C)cc(C(=O)N2CCN(C(=O)CNC3CCN(C(=O)[C@H](N)Cc4c[nH]c5ccccc45)CC3)[C@H](c3ccc(Cl)c(Cl)c3)C2)c1`
28

###

Target: Substance-K receptor (Homo sapiens, UniProt P21452)
Test: Binding affinity in membrane preparations containing recombinant human Tachykinin receptor 2 in CHO cells by using [3H]NKA as the radioligand.
PROPERTY LABEL: Ki

COMPOUND | Ki
Cc1cc(C)cc(C(=O)N2CCN(C(=O)CNC3CCN(C(=O)[C@H](N)c4ccccc4)CC3)[C@H](c3ccc(Cl)c(Cl)c3)C2)c1 | 16 nM
COc1cc(CC(=O)N2CCN(C(=O)CNC3CCN(Cc4ccccc4)CC3)C(c3ccc(Cl)c(Cl)c3)C2)cc(OC)c1OC (stereo not drawn) | > 1000 nM

Consider the record given below.
Short answer please: Ki, Substance-K receptor (Homo sapiens, UniProt P21452), entry O=C(c1cc(O)cc(O)c1)N1CCN(C(=O)CNC2CCN(Cc3ccccc3)CC2)C(c2ccc(Cl)c(Cl)c2)C1 (stereo not drawn)
> 1000 nM

###

Each entry below carries its reported log10(Ki).
Biological target: Substance-P receptor (Homo sapiens)
Test: Binding affinity in membrane preparations containing recombinant human Tachykinin receptor 1 in CHO cells by using [3H]-Sar SP as the radioligand.
Note the log scale: values are log10 of Ki expressed in nM.

These recorded examples may help you get a feel for the data.
MOLECULE | log10(Ki)
O=C(CN1CCN(Cc2ccccc2)CC1)N1CCN(Cc2cc(C(F)(F)F)cc(C(F)(F)F)c2)CC1c1ccc(Cl)c(Cl)c1 (configuration not stated) | 1.45
CC(=O)NC1(c2ccccc2)CCN(CC(=O)N2CCN(Cc3cc(C(F)(F)F)cc(C(F)(F)F)c3)CC2c2ccccc2)CC1 (configuration not stated) | 1.68
O=C(Cc1cc(C(F)(F)F)cc(C(F)(F)F)c1)N1CCN(C(=O)CNC2CCN(Cc3ccccc3)CC2)C(c2ccccc2)C1 (configuration not stated) | 2.13
CC(=O)NC1(c2ccccc2)CCN(CC(=O)N2CCN(Cc3cc(C(F)(F)F)cc(C(F)(F)F)c3)CC2c2ccc(Cl)c(Cl)c2)CC1 (configuration not stated) | 2.17

Query molecule follows.
Name the reported log10(Ki) value associated with the molecule COc1cc(OC)cc(C(=O)N2CCN(C(=O)CNC3CCN(Cc4ccccc4)CC3)C(c3ccc(Cl)c(Cl)c3)C2)c1 (configuration not stated)
0.85

###

Target: Substance-K receptor (Homo sapiens)
Test: Binding affinity in membrane preparations containing recombinant human Tachykinin receptor 2 in CHO cells by using [3H]NKA as the radioligand.
pKi: −log10 of the molar value.
// pKi lookup, one value per entry

These recorded examples may help you get a feel for the data.
COMPOUND | PROPERTY LABEL | RECORDED RESULT
O=C(CN1CCC(O)(c2ccccc2)CC1)N1CCN(Cc2cc(C(F)(F)F)cc(C(F)(F)F)c2)CC1c1ccc(Cl)c(Cl)c1 (stereo not drawn) | pKi | < 6.00
O=C(CN1CCC(O)(c2ccccc2)CC1)N1CCN(Cc2cc(C(F)(F)F)cc(C(F)(F)F)c2)CC1c1ccccc1 (stereo not drawn) | pKi | < 6.00

Could you now look at the following compound, please?
# lookup: pKi of O=C(CN1CCC(Cc2ccccc2)CC1)N1CCN(Cc2cc(C(F)(F)F)cc(C(F)(F)F)c2)CC1c1ccc(Cl)c(Cl)c1 (stereo not drawn)
< 6.00
